assay: Pharmacokinetics: plasma Ang-
Type: in vivo, human
conditionContext: human, sc
property: Tmax (h)
// return numeric value only (unit: h, not printed)

The compound listed as `CC[C@H](C)[C@H](NC(=O)[C@H](Cc1ccc(O)cc1)NC(=O)[C@@H](NC(=O)[C@H](CCCNC(=N)N)NC(=O)[C@@H](N)CC(=O)O)C(C)C)C(=O)N[C@@H](Cc1c[nH]cn1)C(=O)N1CCC[C@H]1C(=O)O` shows Tmax equal to 1
